Every entry's value here was drawn from patent US20210388087A1.

Molecular target: T1, Human CD137 ECD (human)
T1 construct: entry includes C-terminal His-tag and biotin acceptor peptide; also called human CD137 extracellular domain; 4-1BB
T1 sequence (chain, as listed by the source limits assumed): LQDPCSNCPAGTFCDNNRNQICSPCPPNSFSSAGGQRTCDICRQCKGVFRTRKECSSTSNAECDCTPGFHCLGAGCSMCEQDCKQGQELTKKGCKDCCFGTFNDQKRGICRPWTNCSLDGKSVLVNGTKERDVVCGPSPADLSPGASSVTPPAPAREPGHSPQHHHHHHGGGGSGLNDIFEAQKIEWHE
Test: Biacore SPR, vs parent H183/L072
fold change of affinity by entry:
Record the result as a number with its unit.

Binder	Result value
H183/L072 VL G91M (antibody, name in Kabat numbering, V domains shown, Dual-Ig) VH: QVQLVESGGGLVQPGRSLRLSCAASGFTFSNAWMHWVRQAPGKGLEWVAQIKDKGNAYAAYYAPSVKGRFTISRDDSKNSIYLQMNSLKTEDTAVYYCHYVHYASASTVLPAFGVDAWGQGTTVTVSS VL: DIVMTQSPLSLPVTPGEPASISCQASQELVHMNRNTYLHWYQQKPGQAPRLLIYKVSNRFPGVPDRFSGSGSGTDFTLKISRVEAEDVGVYYCAQMTSVPFTFGQGTKLEIK	0 fold

Q: Please report the measured fold change of affinity for H183/L072 VL V27cA (antibody, name in Kabat numbering, V domains shown, Dual-Ig) VH: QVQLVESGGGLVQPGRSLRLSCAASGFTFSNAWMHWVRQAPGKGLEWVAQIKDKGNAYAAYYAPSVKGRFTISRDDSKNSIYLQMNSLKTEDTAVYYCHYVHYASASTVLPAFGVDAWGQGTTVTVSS VL: DIVMTQSPLSLPVTPGEPASISCQASQELAHMNRNTYLHWYQQKPGQAPRLLIYKVSNRFPGVPDRFSGSGSGTDFTLKISRVEAEDVGVYYCAQGTSVPFTFGQGTKLEIK
Ans: 0.5 fold
